Each recorded value in this set is attributed to patent EP3057950B1.

# SYSTEM NAME: wild type human RORγt LBD (Homo sapiens, UniProt P51449)
# Construct: expressed in transfected cells; host or cells: HEK293T
# Sequence (P51449 269-508 limits assumed): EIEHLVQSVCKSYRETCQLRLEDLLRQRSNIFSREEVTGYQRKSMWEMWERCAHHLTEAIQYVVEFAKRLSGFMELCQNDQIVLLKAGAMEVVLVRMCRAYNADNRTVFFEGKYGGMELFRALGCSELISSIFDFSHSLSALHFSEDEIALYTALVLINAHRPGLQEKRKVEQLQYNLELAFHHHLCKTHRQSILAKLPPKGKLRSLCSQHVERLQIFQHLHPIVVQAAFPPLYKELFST
# MEASUREMENT DESCRIPTION: RORγt Reporter Assay (GAL4-RORγt LBD luciferase in HEK293T cells)
# Format: cell-based
# CONDITION LABEL: HEK293T cells, compounds for 24 hours; read-out: RORγt reporter Assay, IC50
Response field label takes criterion met when IC50 is strictly below 200 nM and criterion not met in all other cases.

• COc1nc2ccc(C(O)(c3cncn3C)C3CCN(C(C)=O)CC3)cc2c(Cl)c1-c1cccc(C(F)(F)F)c1 (single isomer, unassigned) [Example 1b] = criterion met
• Cc1nc(C)c(C(O)(c2ccc3nc(C#N)c(-c4ccccc4)c(C#N)c3c2)c2cnnn2C)s1 (stereo not shown) [Example 47a] = criterion met
• CSc1nc2ccc(C(O)(c3sc(C)nc3C)c3cncn3C)cc2c(Cl)c1-c1ccccc1 (stereo not shown) [Example 43] = criterion met
• CN(C)c1c(-c2ccccc2)c(Cl)nc2ccc(C(O)(c3ccccn3)c3cncn3C)cc12 (stereo not shown) [Example 85] = criterion not met
• COc1nc2ccc(C(O)(c3cncn3C)c3cnnn3C)cc2c(C#N)c1-c1cccc(C(F)(F)F)c1 (single isomer, unassigned) [Example 4c] = criterion met
• COc1c(-c2ccccc2)c(C(F)(F)F)nc2ccc(C(O)(c3ccccn3)c3cncn3C)cc12 (single isomer, unassigned) [Example 32b] = criterion not met

* * *

# SYSTEM NAME: wild type human RORγt LBD (Homo sapiens, UniProt P51449)
# Construct: expressed in transfected cells; host or cells: HEK293T
# MEASUREMENT DESCRIPTION: RORγt Reporter Assay (GAL4-RORγt LBD luciferase in HEK293T cells)
# Assay type: cell-based
# CONDITION LABEL: HEK293T cells, compounds for 24 hours; read-out: RORγt reporter Assay, IC50
pIC50: −log10 of the molar value.
OBSERVABLE: pIC50

- COc1nc2ccc(C(O)(c3ncccn3)c3cncn3C)cc2c(OC)c1-c1ccccc1 (centres unmarked): < 5.22
- COc1nc2ccc(C(O)(c3ccc(C(F)(F)F)nc3)c3cncn3C)cc2c(Cl)c1-c1ccc(C#N)cc1 (centres unmarked): 6.70
- COc1nc2ccc(C(O)(c3ncccn3)c3cncn3C)cc2c(Cl)c1-c1ccccc1 (single isomer, unassigned) [Example 60b]: ~5.70
- OC(c1cccc(Cl)c1)(c1ccnc(C(F)(F)F)c1)c1ccc2nc(Cl)c(-c3ccccc3)c(Cl)c2c1 (centres unmarked): < 5.22
- COc1nc2ccc(C(O)(c3ccc(C(F)(F)F)nc3)c3cncn3C)cc2c(Cl)c1-c1ccc(Cl)s1 (centres unmarked) [Example 14a]: 5.96
- CC(=O)N1CCC(C(O)(c2ccc3nc(C(F)(F)F)c(-c4ccccc4)c(Cl)c3c2)c2cncn2C)CC1 (single isomer, unassigned) [Example 34c]: 6.57
- CN1CCC(C(O)(c2cccnc2)c2ccc3nc(Cl)c(-c4ccccc4)c(Cl)c3c2)CC1 (centres unmarked): < 5.22
- Cc1cc(C(O)(c2ccc(Cl)cc2)c2cncn2C)cc2c(C#N)c(-c3ccccc3)c(C#N)nc12 (single isomer, unassigned) [Example 23b]: ~5.40
- N#Cc1nc2ccc(C(O)(c3ccc(C(F)(F)F)nc3)c3cccc(Cl)c3)cc2cc1-c1ccccc1 (centres unmarked): 5.54
- COc1nc2ccc(C(O)(c3ccc(C(F)(F)F)nc3)c3cncn3C)cc2c(Cl)c1-c1cncc(S(C)(=O)=O)c1 (centres unmarked): < 5.22
- N#Cc1nc2ccc(C(O)(c3cccc(Cl)c3)c3ccnc(C(F)(F)F)c3)cc2c(C#N)c1-c1ccccc1 (centres unmarked): ~5.70
- Cc1cc(C(O)(c2ccc(C(F)(F)F)nc2)c2cncn2C)cc2c(C#N)c(-c3ccccc3)c(C#N)nc12 (single isomer, unassigned) [Example 25b]: ~5.70
- CNCCN(C)c1nc2ccc(C(O)(c3ccncc3)c3cncn3C)cc2c(Cl)c1-c1ccccc1 (centres unmarked): < 5.22
- COc1nc2ccc(C(O)(c3ccc(C(F)(F)F)nc3)c3cncn3C)cc2c(Cl)c1-c1ccc(Cl)s1 (single isomer, unassigned) [Example 14b]: 6.62
